- Protocol text: qHTS of pediatric cancer cell lines to identify multiple opportunities for drug repurposing: Primary screen for MG 63 (6-TG R) cells (AID 1347105); note: nearly all actives have a fitted effect of over 50% in size
- Assay conditions: MG 63 (6-TG R) viability, CellTiter-Glo, 48 h; series mostly up to 46 µM
Results filed as inconclusive are left out. Calls of active or inactive are those of the source. Calls come from the whole dose curve; as a rule, active = well fitted cell-killing curve with a large enough effect; inconclusive = small, poorly fitted or top-dose-only effect; inactive = no such curve, though single readings can be large or run the other way.
Labels: class 1 for active, class 0 for inactive

Compound	Assigned class
CC[C@@H](CO)NCCN[C@@H](CC)CO	class 0
COC(=O)CCc1ccc(OCC(O)CNC(C)C)cc1 (centres undefined)	class 0
Cc1onc(-c2c(Cl)cccc2Cl)c1C(=O)N[C@@H]1C(=O)N2[C@@H]1SC(C)(C)[C@@H]2C(=O)O	class 0
CCN1CCCC1=O	class 0
CCCCS(=O)(=O)N[C@@H](Cc1ccc(OCCCCC2CCNCC2)cc1)C(=O)O	class 0
O=C(CCCN1CCC(O)(c2ccc(Br)cc2)CC1)c1ccc(F)cc1	class 0
CCOC(=O)OC(C)OC1=C(C(=O)Nc2ccccn2)N(C)S(=O)(=O)c2ccccc21 (centres undefined)	class 0
CCOC(=O)COc1ccc2c(C)c(CCN(CC)CC)c(=O)oc2c1Cl	class 0
O=C(COc1ccc(Cl)cc1)N1CCN(Cc2ccc3c(c2)OCO3)CC1	class 0
C[C@]12CCC(=O)C=C1CC[C@H]1[C@@H]3CC[C@](O)(C(=O)CO)[C@@]3(C)C[C@H](O)[C@@]12F	class 0
CCN1CCN(c2cc3c(cc2F)c(=O)c(C(=O)O)cn3C2CC2)CC1	class 0
CCCCC(CC)CN=C(N)NC(N)=NCCCCCCN=C(N)NC(N)=NCC(CC)CCCC (centres undefined)	class 1
NC(CS)C(=O)O (centres undefined)	class 0
O=C(O)CNC(=O)c1ccccc1	class 0
NCCC(O)(P(=O)(O)O)P(=O)(O)O	class 0
CCCCOc1cc(C(=O)NCCN(CC)CC)c2ccccc2n1	class 0
O=c1[nH]c(=O)n([C@H]2C[C@H](O)[C@@H](CO)O2)cc1C(F)(F)F	class 0
CN1[C@@H]2CC[C@H]1CC(OC(=O)c1c[nH]c3ccccc13)C2 (some centres undefined)	class 0
O=c1[nH]c(=O)n([C@H]2CCCO2)cc1F	class 0
Cc1cc2c(cc1CC(=O)c1sccc1S(=O)(=O)Nc1onc(C)c1Cl)OCO2	class 0
CC(=O)OCC(=O)NCCCOc1cccc(CN2CCCCC2)c1	class 0
CNCC[C@@H](Oc1ccccc1C)c1ccccc1	class 0
Cc1c(F)c(N2CCNC(C)C2)cc2c1c(=O)c(C(=O)O)cn2C1CC1 (centres undefined)	class 0
C=C(CC)C(=O)c1ccc(OCC(=O)O)c(Cl)c1Cl	class 1

====

- Protocol text: qHTS assay for measurement of the activity of small molecule inhibitors on Zika virus induced Caspase-3 activity in human astrocytoma cells (AID 1224859);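 note: plate controls were ZIKV-infected untreated cells for no effect and uninfected cells for full effect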
- Assay conditions: SNB-19 ZIKV-induced caspase-3/7, luminescence, 6 h; series mostly up to 45.7 µM
Calls of active or inactive are those of the source. Calls come from the whole dose curve; as a rule, active = well fitted inhibition curve with a large enough effect; inconclusive = small, poorly fitted or top-dose-only effect; inactive = no such curve, though single readings can be large or run the other way.

Compound	outcome
CC(C)(C)CC(C)(C)c1ccc(OCCOCC[N+](C)(C)Cc2ccccc2)cc1	inactive
C[C@H]1C[C@H]2[C@@H]3CCC4=CC(=O)C=C[C@]4(C)[C@@]3(Cl)[C@@H](O)C[C@]2(C)[C@@]1(O)C(=O)CO	inactive
COc1cc(OC)cc(OC)c1	inactive
CC1(C)O[C@@H]2C[C@H]3[C@@H]4C[C@H](F)C5=CC(=O)C=C[C@]5(C)[C@H]4[C@@H](O)C[C@]3(C)[C@]2(C(=O)CO)O1	inactive
COc1cc(-c2ccc(=O)[nH]n2)ccc1OC(F)F	inactive
N[C@H](Cc1c[nH]c2ccccc12)C(=O)O	inactive
COc1cc(C(=S)N2CCOCC2)cc(OC)c1OC	inactive
CCOC(=O)COc1ccc2c(C)c(CCN(CC)CC)c(=O)oc2c1Cl	inactive
CCOC(=O)/C=C(C)/C=C/C=C(C)/C=C/c1c(C)cc(OC)c(C)c1C	inactive
CC1(C)O[C@@H]2C[C@H]3[C@@H]4CCC5=CC(=O)CC[C@]5(C)[C@@]4(F)[C@@H](O)C[C@]3(C)[C@]2(C(=O)CCl)O1	inactive
OC(CCN1CCCCC1)(c1ccccc1)c1ccccc1	inactive
O=C(O)c1cc2cc(Cc3cccnc3)ccc2o1	inactive
NCCc1ccn[nH]1	inactive
NC(CO)(CO)CO	inactive
Nc1ccc(C(=O)O)cc1	inactive
c1ccc(OCc2ccc(CCCN3CCOCC3)cc2)cc1	inactive
OCc1ccccc1O	inactive
Cc1ccnc(NS(=O)(=O)c2ccc(N)cc2)n1	inactive
COc1cc2c(cc1O)CC[C@@H]1[C@@H]2CC[C@]2(C)[C@@H](O)CC[C@@H]12	inactive
C=C(CC)C(=O)c1ccc(OCC(=O)O)c(Cl)c1Cl	inactive
CCCCCCCCCCCCCCCC[N+](C)(C)CC	inactive
CCN1CCC[C@H]1CNC(=O)c1c(OC)ccc(Br)c1OC	inactive
CC(C)=CCC1C(=O)N(c2ccccc2)N(c2ccccc2)C1=O	inactive
CC(=O)c1ccc2c(c1)N(CCCN1CCC(CCO)CC1)c1ccccc1S2	inactive
CC(=O)Oc1ccc(C(=C2CCCCC2)c2ccc(OC(C)=O)cc2)cc1	inactive
COC1=CC(=O)C[C@@H](C)[C@]12Oc1c(Cl)c(OC)cc(OC)c1C2=O	inactive
O=C1OC2(c3ccc(O)cc3Oc3cc(O)ccc32)c2ccccc21	inactive
NC[C@H]1O[C@H](O[C@H]2[C@H](O)[C@@H](O[C@H]3O[C@H](CO)[C@@H](O)[C@H](N)[C@H]3O)[C@H](N)C[C@@H]2N)[C@H](N)[C@@H](O)[C@@H]1O	inactive
CCOC(=O)n1ccn(C)c1=S	inactive
COc1ccc(C2C(=O)c3ccccc3C2=O)cc1	inactive
C[C@]12CCC(=O)C=C1CC[C@H]1[C@@H]3CC[C@](O)(C(=O)CO)[C@@]3(C)C[C@H](O)[C@@]12F	inactive
CC(=O)[C@H]1CC[C@H]2[C@@H]3C[C@H](C)C4=CC(=O)CC[C@]4(C)[C@H]3[C@@H](O)C[C@]12C	inactive
Oc1c(Cl)cc(Cl)cc1Sc1cc(Cl)cc(Cl)c1O	inactive
COc1cccc2c1C(=O)c1c(O)c3c(c(O)c1C2=O)C[C@@](O)(C(C)=O)C[C@@H]3O[C@H]1C[C@H](N)[C@H](O)[C@H](C)O1	inactive
O=C(OCC(O)CO)c1ccccc1Nc1ccnc2cc(Cl)ccc12 (centres undefined)	inactive
CC(C)COC(=O)OCN1C(=O)CN(CCN2CC(=O)N(COC(=O)OCC(C)C)C(=O)C2)CC1=O	inactive
CCN(CC)CCOc1ccc(C(O)(Cc2ccc(Cl)cc2)c2ccc(C)cc2)cc1 (centres undefined)	inactive
CCC(=O)c1c(O)cc(O)cc1O	inactive
CCCCCCC[N+](CC)(CC)CCCCc1ccc(Cl)cc1	inactive
CCOc1ccc(NC(=O)CC(C)O)cc1 (centres undefined)	inactive
CC(C)(CO)[C@@H](O)C(=O)NCCCO	inactive
O=S1(=O)c2cccc3cccc(c23)N1CCCN1CCN(c2ccc(F)cc2)CC1	inactive
CC(=O)N/N=C/c1ccc([N+](=O)[O-])o1	inactive
CN(C)CCOc1ccccc1Cc1ccccc1	inactive
